Exercise: state measured pIC50 for each of the molecules provided.
System: HL-60
Test: Growth inhibition of human HL60 cells after 3 days
Type: functional, cell-based
Settings: HL-60, 72 h
Convention used: pIC50 is expressed as -log10 of the molar concentration.

Tell me measured pIC50 for CCCCCCCCCN1CCN([C@H]2C[C@@]3(C)[C@@H](CC[C@@H]4[C@@H]3CC[C@]3(C)[C@@H](O)CC[C@@H]43)C[C@@H]2O)CC1 please. 5.38

Tell me measured pIC50 for CCCCCCCCN[C@H]1C[C@@]2(C)[C@@H](CC[C@@H]3[C@@H]2CC[C@]2(C)[C@@H](O)CC[C@@H]32)C[C@@H]1O please. 5.19

Tell me measured pIC50 for C[C@]12C[C@H](NCCC(c3ccccc3)c3ccccc3)[C@@H](O)C[C@@H]1CC[C@@H]1[C@@H]2CC[C@]2(C)[C@@H](O)CC[C@@H]12 please. 5.51

Tell me measured pIC50 for COc1cccc2c1C(=O)c1c(O)c3c(c(O)c1C2=O)C[C@@](O)(C(=O)CO)C[C@@H]3O[C@H]1C[C@H](N)[C@H](O)[C@H](C)O1 please. 7.00
